test-method-notes: Human liver microsome clearance (HLM CL)
Assay type: in vitro ADME
Design: dose or concentration left out as unconfirmed
assay-setup: Table 1; human liver microsomes; read-out: HLM (T1/2)
property-label: half-life (min)

compound: CC[C@@]1(O)C(=O)OCc2c1cc1n(c2=O)Cc2c-1nc1cc(F)c(C)c3c1c2[C@@](C)(N(C)CCO)CC3.Cl (single isomer, unassigned)
recorded-value: 24

* * *

// values below are reported half-life
test-method-notes: Human liver microsome clearance (HLM CL)
Format: in vitro ADME
Set-up: dose or concentration left out as unconfirmed
assay-setup: human, microsomes

compound: CC[C@@]1(O)C(=O)OCc2c1cc1n(c2=O)Cc2c-1nc1cc(F)c(C)c3c1c2[C@@H](CO)CC3 (single isomer, unassigned) [Compound 1-17]
half-life: 23.5 min

compound: CC[C@@]1(O)C(=O)OCc2c1cc1n(c2=O)Cc2c-1nc1cc(F)c(C)c3c1c2[C@H](CO)CC3 (single isomer, unassigned) [Compound 1-16]
half-life: 28 min

compound: CC[C@@]1(O)C(=O)OCc2c1cc1n(c2=O)Cc2c-1nc1cc(F)c(C)c3c1c2[C@](C)(N1CC[C@@H](O)C1)CC3 (single isomer, unassigned) [Compound 5-40]
half-life: 5.2 min

compound: CC[C@@]1(O)C(=O)OCc2c1cc1n(c2=O)Cc2c-1nc1cc(F)c(C)c3c1c2[C@H](CCCO)CC3 (single isomer, unassigned) [Compound 13-63]
half-life: 27.1 min

compound: CC[C@@]1(O)C(=O)OCc2c1cc1n(c2=O)Cc2c-1nc1cc(F)c(C)c3c1c2[C@H](CCO)CC3 (single isomer, unassigned) [Compound 12-58]
half-life: 20.1 min

compound: CC[C@@]1(O)C(=O)OCc2c1cc1n(c2=O)Cc2c-1nc1cc(F)c(C)c3c1c2[C@@H](CCCO)CC3 (single isomer, unassigned) [Compound 13-64]
half-life: 22 min

compound: CC[C@@]1(O)C(=O)OCc2c1cc1n(c2=O)Cc2c-1nc1cc(F)c(C)c3c1c2[C@](C)(N1CC[C@H](O)C1)CC3 (single isomer, unassigned) [Compound 5-41]
half-life: 13.5 min

compound: CC[C@@]1(O)C(=O)OCc2c1cc1n(c2=O)Cc2c-1nc1cc(F)c(C)c3c1c2[C@@H](CCO)CC3 (single isomer, unassigned) [Compound 12-59]
half-life: 20.1 min

compound: CC[C@@]1(O)C(=O)OCc2c1cc1n(c2=O)Cc2c-1nc1cc(F)c(C)c3c1c2[C@](C)(CCCO)CC3 (single isomer, unassigned) [Compound 15-75]
half-life: 22.4 min

* * *

// values below are reported half-life
test-method-notes: Human hepatocyte clearance (HHEP CL)
Type: in vitro ADME
Design: dose or concentration left out as unconfirmed
assay-setup: both sexes, human, hepatocytes
Structures can show the parent of a compound that is named as a salt.
property-label: half-life (min)

compound: CC[C@@]1(O)C(=O)OCc2c1cc1n(c2=O)Cc2c-1nc1cc(F)c(C)c3c1c2[C@](C)(N(C)CCO)CC3 (single isomer, unassigned) [Compound 7-45, hydrochloride]
recorded-value: 42
//
compound: CC[C@@]1(O)C(=O)OCc2c1cc1n(c2=O)Cc2c-1nc1cc(F)c(C)c3c1c2[C@](C)(N1CC[C@H](O)C1)CC3 (single isomer, unassigned)
recorded-value: 77
//
compound: CC[C@@]1(O)C(=O)OCc2c1cc1n(c2=O)Cc2c-1nc1cc(F)c(C)c3c1c2[C@@H](CCO)CC3 (single isomer, unassigned)
recorded-value: 64.3
//
compound: CC[C@@]1(O)C(=O)OCc2c1cc1n(c2=O)Cc2c-1nc1cc(F)c(C)c3c1c2[C@](C)(CCO)CC3 (single isomer, unassigned)
recorded-value: 53.6

* * *

test-method-notes: Human hepatocyte clearance (HHEP CL)
Assay type: in vitro ADME
Design: dose or concentration left out as unconfirmed
assay-setup: both sexes, human, hepatocytes
// values below are reported half-life

compound: CC[C@@]1(O)C(=O)OCc2c1cc1n(c2=O)Cc2c-1nc1cc(F)c(C)c3c1c2C(CO)(CO)CC3 [Compound 2-20]
scale-unit: h
half-life: 2.68
//
compound: C=CC[C@H]1CCc2c(C)c(F)cc3nc4c(c1c23)Cn1c-4cc2c(c1=O)COC(=O)[C@]2(O)CC (single isomer, unassigned) [Compound 17-87]
scale-unit: h
half-life: 0.517
//
compound: CC[C@@]1(O)C(=O)OCc2c1cc1n(c2=O)Cc2c-1nc1cc(F)c(C)c3c1c2[C@H](CO)CC3 (single isomer, unassigned) [Compound 1-16]
scale-unit: h
half-life: 1.95
//
compound: CC[C@@]1(O)C(=O)OCc2c1cc1n(c2=O)Cc2c-1nc1cc(F)c(C)c3c1c2[C@](C)(N1CC[C@@H](O)C1)CC3 (single isomer, unassigned) [Compound 5-40]
scale-unit: h
half-life: 0.633
//
compound: CC[C@@]1(O)C(=O)OCc2c1cc1n(c2=O)Cc2c-1nc1cc(F)c(C)c3c1c2[C@@](C)(CCCO)CC3 (single isomer, unassigned) [Compound 15-76]
scale-unit: h
half-life: 0.68
//
compound: CC[C@@]1(O)C(=O)OCc2c1cc1n(c2=O)Cc2c-1nc1cc(F)c(C)c3c1c2[C@@](C)(COCCO)CC3 (single isomer, unassigned) [Compound 16-83]
scale-unit: h
half-life: 1.89

* * *

test-method-notes: PAMPA (Parallel Artificial Membrane Permeability Assay)
Type: physicochemical
Set-up: dose or concentration left out as unconfirmed
assay-setup: Table 1, pH 7.4, read-out: PAMPA Pe pH 7.4

molecule: CC[C@@]1(O)C(=O)OCc2c1cc1n(c2=O)Cc2c-1nc1cc(F)c(C)c3c1c2[C@@](C)(N(C)CCO)CC3.Cl (single isomer, unassigned)
scale-unit: ×10⁻⁶ cm/s
Papp: 8.3

* * *

Test system: Jeko-1
test-method-notes: CTG assay of payloads, Jeko-1 cells
Format: cell-based, human
assay-setup: Homo sapiens, JeKo-1; Table 1; 72 h, CellTiter-Glo
pIC50: −log10 of the molar value. Where a name gives a salt, the structure may show the parent alone.
property-label: pIC50

molecule: CC[C@@]1(O)C(=O)OCc2c1cc1n(c2=O)Cc2c-1nc1cc(F)c(C)c3c1c2[C@@](C)(CO)CC3 (single isomer, unassigned) [Compound 3-28]
system-under-test: Jeko-1
recorded-value: 8.89
//
molecule: CC[C@@]1(O)C(=O)OCc2c1cc1n(c2=O)Cc2c-1nc1cc(F)c(C)c3c1c2[C@@](C)(N(C)CCO)CC3.Cl (single isomer, unassigned) [Compound 6-44, hydrochloride]
system-under-test: Jeko-1
recorded-value: 7.62
//
molecule: CC[C@@]1(O)C(=O)OCc2c1cc1n(c2=O)Cc2c-1nc1cc(F)c(C)c3c1c2[C@](C)(N1CC[C@@H](O)C1)CC3 (single isomer, unassigned) [Compound 5-40]
system-under-test: Jeko-1
recorded-value: 8.00
//
molecule: CC[C@@]1(O)C(=O)OCc2c1cc1n(c2=O)Cc2c-1nc1cc(F)c(C)c3c1c2[C@H](CO)CC3 (single isomer, unassigned) [Compound 1-16]
system-under-test: Jeko-1
recorded-value: 9.10
//
molecule: CC[C@@]1(O)C(=O)OCc2c1cc1n(c2=O)Cc2c-1nc1cc(F)c(C)c3c1c2[C@](C)(N(C)CCO)CC3 (single isomer, unassigned) [Compound 7-45, hydrochloride]
system-under-test: Jeko-1
recorded-value: 7.47
//
molecule: CC[C@@]1(O)C(=O)OCc2c1cc1n(c2=O)Cc2c-1nc1cc(F)c(C)c3c1c2[C@](C)(CO)CC3 (single isomer, unassigned) [Compound 3-27]
system-under-test: Jeko-1
recorded-value: 8.68
//
molecule: CC[C@@]1(O)C(=O)OCc2c1cc1n(c2=O)Cc2c-1nc1cc(F)c(C)c3c1c2[C@](C)(N1CC[C@H](O)C1)CC3 (single isomer, unassigned) [Compound 5-41]
system-under-test: Jeko-1
recorded-value: 7.94
//
molecule: CC[C@@]1(O)C(=O)OCc2c1cc1n(c2=O)Cc2c-1nc1cc(F)c(C)c3c1c2C(CO)(CO)CC3 [Compound 2-20]
system-under-test: Jeko-1
recorded-value: 7.39
//
molecule: CC[C@@]1(O)C(=O)OCc2c1cc1n(c2=O)Cc2c-1nc1cc(F)c(C)c3c1c2[C@@H](CO)CC3 (single isomer, unassigned) [Compound 1-17]
system-under-test: Jeko-1
recorded-value: 9.00

* * *

test-method-notes: Human liver microsome clearance (HLM CL)
Type: in vitro ADME
Design: dose or concentration left out as unconfirmed
assay-setup: human, microsomes
Counter-ions that a name gives are not always drawn.
property-label: half-life (min)

compound: CC[C@@]1(O)C(=O)OCc2c1cc1n(c2=O)Cc2c-1nc1cc(F)c(C)c3c1c2[C@@](C)(COCCO)CC3 (single isomer, unassigned) [Compound 16-83]
property-label: half-life
recorded-value: 25.7
--
compound: CC[C@@]1(O)C(=O)OCc2c1cc1n(c2=O)Cc2c-1nc1cc(F)c(C)c3c1c2[C@@](C)(CCO)CC3 (single isomer, unassigned) [Compound 14-71]
property-label: half-life
recorded-value: 10.8
--
compound: CC[C@@]1(O)C(=O)OCc2c1cc1n(c2=O)Cc2c-1nc1cc(F)c(C)c3c1c2[C@](C)(CO)CC3 (single isomer, unassigned) [Compound 3-27]
property-label: half-life
recorded-value: 9.7
--
compound: CC[C@@]1(O)C(=O)OCc2c1cc1n(c2=O)Cc2c-1nc1cc(F)c(C)c3c1c2[C@@](C)(CO)CC3 (single isomer, unassigned) [Compound 3-28]
property-label: half-life
recorded-value: 23
--
compound: CC[C@@]1(O)C(=O)OCc2c1cc1n(c2=O)Cc2c-1nc1cc(F)c(C)c3c1c2[C@](C)(N(C)CCO)CC3 (single isomer, unassigned) [Compound 7-45, hydrochloride]
property-label: half-life
recorded-value: 9
--
compound: CC[C@@]1(O)C(=O)OCc2c1cc1n(c2=O)Cc2c-1nc1cc(F)c(C)c3c1c2[C@@](C)(CCCO)CC3 (single isomer, unassigned) [Compound 15-76]
property-label: half-life
recorded-value: 5.2
--
compound: CC[C@@]1(O)C(=O)OCc2c1cc1n(c2=O)Cc2c-1nc1cc(F)c(C)c3c1c2[C@](C)(COCCO)CC3 (single isomer, unassigned) [Compound 16-82]
property-label: half-life
recorded-value: 5.6
--
compound: C=CC[C@H]1CCc2c(C)c(F)cc3nc4c(c1c23)Cn1c-4cc2c(c1=O)COC(=O)[C@]2(O)CC (single isomer, unassigned) [Compound 17-87]
property-label: half-life
recorded-value: 5.4
--
compound: CC[C@@]1(O)C(=O)OCc2c1cc1n(c2=O)Cc2c-1nc1cc(F)c(C)c3c1c2C(CO)(CO)CC3 [Compound 2-20]
property-label: half-life
recorded-value: 27
--
compound: CC[C@@]1(O)C(=O)OCc2c1cc1n(c2=O)Cc2c-1nc1cc(F)c(C)c3c1c2[C@](C)(CCO)CC3 (single isomer, unassigned) [Compound 14-70]
property-label: half-life
recorded-value: 18.4
--
compound: C=CC[C@@H]1CCc2c(C)c(F)cc3nc4c(c1c23)Cn1c-4cc2c(c1=O)COC(=O)[C@]2(O)CC (single isomer, unassigned) [Compound 17-86]
property-label: half-life
recorded-value: 13
